Hey, just so you know, these numbers are from patent US20160106439A1.

- TARGET_DESC: recombinant human MET (Homo sapiens)
- PROCEDURE_SUMMARY: biochemical
- COND: IC50, MET 2.5 ng/μL; ATP 100 μM
MEASUREMENT_KIND: IC50

# IC50 (compound: O=S(=O)([O-])CCSSCCS(=O)(=O)[O-].[Na+].[Na+] [Tavocept] ) is > 40 mM

###

- TARGET_DESC: recombinant human MET (Homo sapiens, UniProt P08581)
- Sequence (P08581 956-1390 limits assumed): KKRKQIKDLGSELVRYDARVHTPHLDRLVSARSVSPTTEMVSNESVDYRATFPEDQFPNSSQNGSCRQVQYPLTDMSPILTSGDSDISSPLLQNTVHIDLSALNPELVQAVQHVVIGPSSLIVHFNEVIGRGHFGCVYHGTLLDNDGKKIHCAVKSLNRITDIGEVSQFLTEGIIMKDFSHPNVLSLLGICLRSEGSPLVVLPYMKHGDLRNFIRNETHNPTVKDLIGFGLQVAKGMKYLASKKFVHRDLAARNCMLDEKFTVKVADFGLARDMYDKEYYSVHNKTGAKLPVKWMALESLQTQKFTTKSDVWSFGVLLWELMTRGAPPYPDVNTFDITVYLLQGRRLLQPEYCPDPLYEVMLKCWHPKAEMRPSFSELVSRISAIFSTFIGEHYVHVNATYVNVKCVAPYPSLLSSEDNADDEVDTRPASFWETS
- PROCEDURE_SUMMARY: biochemical
- COND: IC50 on MET, 100 μM ATP; 0.1 ng/μL MET; single experiment
MEASUREMENT_KIND: IC50
Answer with the number, then the unit.

# IC50 (compound: O=S(=O)([O-])CCSSCCS(=O)(=O)[O-].[Na+].[Na+] [Tavocept] ) is 37.1 mM

###

- TARGET_DESC: recombinant human ALK (Homo sapiens, UniProt Q9UM73)
- Sequence (Q9UM73 1058-1620 limits assumed): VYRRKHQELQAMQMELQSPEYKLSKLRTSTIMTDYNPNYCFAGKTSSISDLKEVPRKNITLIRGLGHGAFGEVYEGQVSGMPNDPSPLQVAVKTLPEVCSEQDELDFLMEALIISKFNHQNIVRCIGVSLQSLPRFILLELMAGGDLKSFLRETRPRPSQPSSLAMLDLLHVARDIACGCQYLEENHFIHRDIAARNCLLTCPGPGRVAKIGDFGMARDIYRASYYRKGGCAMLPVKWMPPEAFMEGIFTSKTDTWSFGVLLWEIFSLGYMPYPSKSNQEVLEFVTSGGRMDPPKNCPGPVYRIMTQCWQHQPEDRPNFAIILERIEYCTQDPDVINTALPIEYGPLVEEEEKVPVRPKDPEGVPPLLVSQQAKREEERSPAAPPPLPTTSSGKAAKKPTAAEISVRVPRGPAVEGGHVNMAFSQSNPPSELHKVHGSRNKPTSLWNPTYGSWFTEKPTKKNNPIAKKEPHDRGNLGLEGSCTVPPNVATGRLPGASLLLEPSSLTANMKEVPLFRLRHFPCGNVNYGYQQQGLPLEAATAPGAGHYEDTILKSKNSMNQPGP
- PROCEDURE_SUMMARY: biochemical
- COND: IC50 on ALK, 500 μM ATP
MEASUREMENT_KIND: pIC50
Answers are plain numbers, as −log10 of the molar value.

For the molecule O=S(=O)([O-])CCSSCCS(=O)(=O)[O-].[Na+].[Na+] , the measured pIC50 on recombinant human ALK (Homo sapiens, UniProt Q9UM73) was 1.68

###

- TARGET_DESC: WT EGFR kinase (Homo sapiens, UniProt P00533)
- Sequence (P00533 25-1210): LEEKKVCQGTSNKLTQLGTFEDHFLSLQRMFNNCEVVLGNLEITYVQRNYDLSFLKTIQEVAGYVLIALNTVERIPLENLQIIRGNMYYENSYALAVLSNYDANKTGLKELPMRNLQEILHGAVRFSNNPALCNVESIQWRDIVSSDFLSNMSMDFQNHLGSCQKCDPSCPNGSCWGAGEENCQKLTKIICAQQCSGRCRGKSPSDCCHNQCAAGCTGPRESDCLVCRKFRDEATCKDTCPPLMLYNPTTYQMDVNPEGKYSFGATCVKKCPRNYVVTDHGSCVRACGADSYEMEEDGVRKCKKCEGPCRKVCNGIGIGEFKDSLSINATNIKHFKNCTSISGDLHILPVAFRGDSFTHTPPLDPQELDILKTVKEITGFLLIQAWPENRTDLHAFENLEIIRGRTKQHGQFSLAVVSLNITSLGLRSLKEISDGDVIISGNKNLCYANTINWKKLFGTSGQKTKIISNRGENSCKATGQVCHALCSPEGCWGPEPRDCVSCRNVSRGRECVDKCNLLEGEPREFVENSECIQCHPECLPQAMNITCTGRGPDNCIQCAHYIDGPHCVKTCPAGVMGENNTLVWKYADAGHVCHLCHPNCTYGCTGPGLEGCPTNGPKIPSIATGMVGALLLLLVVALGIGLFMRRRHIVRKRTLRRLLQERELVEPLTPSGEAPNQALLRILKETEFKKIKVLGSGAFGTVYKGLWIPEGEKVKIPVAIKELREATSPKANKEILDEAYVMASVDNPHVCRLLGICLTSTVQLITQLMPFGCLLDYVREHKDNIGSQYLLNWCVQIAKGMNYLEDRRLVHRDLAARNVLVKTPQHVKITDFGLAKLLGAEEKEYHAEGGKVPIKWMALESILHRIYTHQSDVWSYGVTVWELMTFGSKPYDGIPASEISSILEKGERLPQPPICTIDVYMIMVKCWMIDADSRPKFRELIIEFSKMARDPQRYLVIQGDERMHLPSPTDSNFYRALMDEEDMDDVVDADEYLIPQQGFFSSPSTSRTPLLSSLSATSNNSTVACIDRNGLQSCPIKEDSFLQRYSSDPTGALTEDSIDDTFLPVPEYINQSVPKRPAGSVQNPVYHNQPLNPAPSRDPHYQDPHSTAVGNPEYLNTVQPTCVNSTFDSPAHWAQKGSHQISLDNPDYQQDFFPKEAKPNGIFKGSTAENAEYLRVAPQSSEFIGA
- PROCEDURE_SUMMARY: WT EGFR kinase assay (ADP-glo)
- COND: read-out: IC50 on WT EGFR kinase activity; 250 μM ATP; conducted only once
MEASUREMENT_KIND: pIC50
Numbers only, as −log10 of the molar value.

# pIC50 (compound: NC(CSSCCS(=O)(=O)O)C(=O)NC(CCC(=O)O)C(=O)O (centres unmarked) [mesna-cysteinylglutamate] ) is 3.16

Please turn your attention to the following entry.
# pIC50 (compound: NC(CCC(=O)NC(CSSCCS(=O)(=O)O)C(=O)NCC(=O)O)C(=O)O (centres unmarked) ) is 2.80

###

- TARGET_DESC: recombinant human MET (Homo sapiens)
- PROCEDURE_SUMMARY: biochemical
- COND: IC50 on MET, 10 μM ATP; 2.5 ng/μL MET; single experiment
MEASUREMENT_KIND: IC50 (mM)
One number for each entry, in mM.

# IC50 (compound: O=S(=O)([O-])CCSSCCS(=O)(=O)[O-].[Na+].[Na+] ) is 17.4

###

- TARGET_DESC: UniProtKB P00533
- PROCEDURE_SUMMARY: WT EGFR kinase assay (ADP-glo)
- COND: IC50 on WT EGFR kinase activity, 100 μM ATP
Record form. Attribute: IC50. Fill in for each entry.
Numbers only, in mM.

# IC50 (molecule: NC(CSSCCS(=O)(=O)O)C(=O)O (stereo not drawn) [mesna-cysteine] ) is 2.65

Please turn your attention to the following entry.
# IC50 (molecule: NC(CSSCCS(=O)(=O)O)C(=O)NCC(=O)O (stereo not drawn) [mesna-cysteinylglycine] ) is 0.37

###

- TARGET_DESC: recombinant human MET (Homo sapiens, UniProt P08581)
- PROCEDURE_SUMMARY: biochemical
- COND: IC50 on MET, 10 μM ATP; 0.1 ng/μL MET
MEASUREMENT_KIND: IC50 (mM)
Answers are plain numbers, in mM.

# IC50 (compound: O=S(=O)([O-])CCSSCCS(=O)(=O)[O-].[Na+].[Na+] ) is 15.2

###

- TARGET_DESC: T790M EGFR kinase (Homo sapiens, UniProt P00533, T790M)
- Sequence (P00533 25-1210 T790M): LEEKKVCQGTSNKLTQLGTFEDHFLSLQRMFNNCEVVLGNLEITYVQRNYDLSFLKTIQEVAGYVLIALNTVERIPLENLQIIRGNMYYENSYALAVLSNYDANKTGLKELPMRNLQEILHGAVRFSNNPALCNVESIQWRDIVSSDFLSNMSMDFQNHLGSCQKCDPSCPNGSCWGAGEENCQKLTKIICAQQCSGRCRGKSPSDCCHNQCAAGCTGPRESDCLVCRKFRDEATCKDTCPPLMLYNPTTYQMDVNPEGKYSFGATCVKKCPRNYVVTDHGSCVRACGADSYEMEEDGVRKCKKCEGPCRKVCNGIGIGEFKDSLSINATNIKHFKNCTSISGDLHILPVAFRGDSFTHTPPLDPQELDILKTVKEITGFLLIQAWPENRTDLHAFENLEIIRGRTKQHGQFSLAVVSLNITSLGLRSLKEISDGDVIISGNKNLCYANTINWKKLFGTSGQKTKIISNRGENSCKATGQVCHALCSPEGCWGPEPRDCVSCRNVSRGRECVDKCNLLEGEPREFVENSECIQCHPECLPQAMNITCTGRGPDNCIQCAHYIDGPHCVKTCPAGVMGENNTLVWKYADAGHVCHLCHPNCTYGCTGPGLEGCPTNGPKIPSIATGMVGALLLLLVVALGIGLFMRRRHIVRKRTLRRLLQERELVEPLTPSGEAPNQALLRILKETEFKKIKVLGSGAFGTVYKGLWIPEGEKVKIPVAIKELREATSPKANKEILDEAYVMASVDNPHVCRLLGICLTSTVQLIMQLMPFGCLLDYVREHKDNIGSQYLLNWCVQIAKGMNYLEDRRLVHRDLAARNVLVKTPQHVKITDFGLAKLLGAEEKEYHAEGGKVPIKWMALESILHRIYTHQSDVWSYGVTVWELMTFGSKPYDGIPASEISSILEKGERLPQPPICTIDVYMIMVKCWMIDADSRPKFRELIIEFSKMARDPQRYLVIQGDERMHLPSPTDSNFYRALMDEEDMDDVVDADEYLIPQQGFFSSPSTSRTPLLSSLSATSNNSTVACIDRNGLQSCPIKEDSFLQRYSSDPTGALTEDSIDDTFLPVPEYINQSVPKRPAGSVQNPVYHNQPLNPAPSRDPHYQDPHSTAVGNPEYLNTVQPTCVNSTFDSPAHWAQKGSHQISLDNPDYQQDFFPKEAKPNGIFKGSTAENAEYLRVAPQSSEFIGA
- PROCEDURE_SUMMARY: T790M EGFR kinase assay (ADP-glo)
- Type: biochemical
- COND: 100 μM ATP; read-out: IC50 on T790M EGFR kinase activity
MEASUREMENT_KIND: IC50 (µM)
One number for each entry, in µM.

Consider the worked cases shown below.
# IC50 (compound: NC(CSSCCS(=O)(=O)O)C(=O)NCC(=O)O (centres unmarked) ) is 410

# IC50 (compound: NC(CSSCCS(=O)(=O)O)C(=O)NC(CCC(=O)O)C(=O)O (centres unmarked) [mesna-cysteinylglutamate] ) is 1050

# IC50 (compound: NC(CSSCCS(=O)(=O)O)C(=O)O (centres unmarked) ) is 3030

Please turn your attention to the following entry.
# IC50 (compound: NC(CCC(=O)NC(CSSCCS(=O)(=O)O)C(=O)NCC(=O)O)C(=O)O (centres unmarked) ) is 1170

###

- TARGET_DESC: T790M EGFR kinase (Homo sapiens, UniProt P00533, T790M)
- PROCEDURE_SUMMARY: T790M EGFR kinase assay (ADP-glo)
- Type: biochemical
- COND: 10 μM ATP; read-out: IC50 on T790M EGFR kinase activity
Record form. Attribute: pIC50. Fill in for each entry.
Give bare numbers, as −log10 of the molar value.

Consider the worked cases shown below.
# pIC50 (molecule: NC(CSSCCS(=O)(=O)O)C(=O)NCC(=O)O (centres unmarked) ) is 3.29

# pIC50 (molecule: NC(CCC(=O)NC(CSSCCS(=O)(=O)O)C(=O)NCC(=O)O)C(=O)O (centres unmarked) ) is 2.89

# pIC50 (molecule: NC(CSSCCS(=O)(=O)O)C(=O)NC(CCC(=O)O)C(=O)O (centres unmarked) [mesna-cysteinylglutamate] ) is 2.96

Please turn your attention to the following entry.
# pIC50 (molecule: NC(CSSCCS(=O)(=O)O)C(=O)O (centres unmarked) ) is 2.42

###

- TARGET_DESC: WT EGFR kinase (Homo sapiens, UniProt P00533)
- PROCEDURE_SUMMARY: WT EGFR kinase assay (ADP-glo)
- COND: IC50 on WT EGFR kinase activity, 250 μM ATP; conducted only once
MEASUREMENT_KIND: pIC50
Give bare numbers, as −log10 of the molar value.

For the molecule NC(CSSCCS(=O)(=O)O)C(=O)NCC(=O)O (centres unmarked) , the measured pIC50 on WT EGFR kinase (Homo sapiens, UniProt P00533) was 3.49

Please turn your attention to the following entry.
For the molecule NC(CSSCCS(=O)(=O)O)C(=O)O (centres unmarked) , the measured pIC50 on WT EGFR kinase (Homo sapiens, UniProt P00533) was 2.54

###

- TARGET_DESC: recombinant human ALK (Homo sapiens)
- PROCEDURE_SUMMARY: biochemical
- COND: IC50 on ALK, 100 μM ATP
MEASUREMENT_KIND: IC50 (mM)
Answers are plain numbers, in mM.

# IC50 (molecule: O=S(=O)([O-])CCSSCCS(=O)(=O)[O-].[Na+].[Na+] ) is 9.16

###

- TARGET_DESC: WT EGFR kinase (Homo sapiens, UniProt P00533)
- PROCEDURE_SUMMARY: WT EGFR kinase assay (ADP-glo)
- COND: IC50 on WT EGFR kinase activity, 10 μM ATP
Record form. Attribute: pIC50. Fill in for each entry.
Give bare numbers, as −log10 of the molar value.

# pIC50 (molecule: NC(CSSCCS(=O)(=O)O)C(=O)O (stereo not drawn) [mesna-cysteine] ) is 2.56

# pIC50 (molecule: O=S(=O)([O-])CCSSCCS(=O)(=O)[O-].[Na+].[Na+] [Tavocept] ) is 1.61

Please turn your attention to the following entry.
# pIC50 (molecule: NC(CSSCCS(=O)(=O)O)C(=O)NCC(=O)O (stereo not drawn) [mesna-cysteinylglycine] ) is 3.35

###

- TARGET_DESC: WT EGFR kinase (Homo sapiens)
- PROCEDURE_SUMMARY: WT EGFR kinase assay (ADP-glo)
- COND: 10 μM and 100 μM ATP
MEASUREMENT_KIND: potentiation of Erlotinib inhibition of WT EGFR kinase activity

# potentiation of Erlotinib inhibition of WT EGFR kinase activity (compound: NC(CSSCCS(=O)(=O)O)C(=O)NCC(=O)O (stereo not shown) ) is effectively potentiated

# potentiation of Erlotinib inhibition of WT EGFR kinase activity (compound: NC(CCC(=O)NC(CSSCCS(=O)(=O)O)C(=O)NCC(=O)O)C(=O)O (stereo not shown) ) is effectively potentiated

# potentiation of Erlotinib inhibition of WT EGFR kinase activity (compound: NC(CSSCCS(=O)(=O)O)C(=O)O (stereo not shown) ) is effectively potentiated

# potentiation of Erlotinib inhibition of WT EGFR kinase activity (compound: NC(CSSCCS(=O)(=O)O)C(=O)NC(CCC(=O)O)C(=O)O (stereo not shown) [mesna-cysteinylglutamate] ) is effectively potentiated

###

- TARGET_DESC: WT EGFR kinase (Homo sapiens, UniProt P00533)
- PROCEDURE_SUMMARY: WT EGFR kinase assay (ADP-glo)
- COND: read-out: IC50 on WT EGFR kinase activity; 100 μM ATP
MEASUREMENT_KIND: pIC50
One number for each entry, as −log10 of the molar value.

# pIC50 (compound: NC(CCC(=O)NC(CSSCCS(=O)(=O)O)C(=O)NCC(=O)O)C(=O)O (centres unmarked) ) is 3.09

Please turn your attention to the following entry.
# pIC50 (compound: NC(CSSCCS(=O)(=O)O)C(=O)NC(CCC(=O)O)C(=O)O (centres unmarked) [mesna-cysteinylglutamate] ) is 3.09
